Tested on: SF-295 CNS
TEST_DESCRIPTION: NCI tumour cell line growth inhibition, 48 h
Please go through the items and note down their GI50.

**Query** Entry under review: `O=C([O][Sn]([O]C(=O)c1ccccn1)([c]1ccccc1)[c]1ccccc1)c1ccccn1` . Reported GI50?
**Result** 16.1 µM

**Query** Entry under review: `CC(C)(C)OC(=O)NCCCn1c2c(c3ccccc3c1=O)C(=O)c1ccccc1-2` . Reported GI50?
**Result** 16.8 µM

**Query** Entry under review: `c1ccc2c(-c3nc(-c4c[nH]c5ccncc45)cs3)c[nH]c2c1` . Reported GI50?
**Result** 1.58 µM

**Query** Entry under review: O=C(c1ccccc1)c1c(NCC(O)CN2CCOCC2)n(Cc2ccccc2)c(=O)n(Cc2ccccc2)c1=O (stereo not drawn) . Reported GI50?
**Result** 36.2 µM

**Query** Entry under review: `C#Cc1nc2ccccc2c(=O)[nH]1` . Reported GI50?
**Result** 3.72 µM

**Query** Entry under review: `COc1cc2c(cc1OC)C(=O)/C(=C/c1cc(-c3ccc4c(c3)OCO4)n[nH]1)C2` . Reported GI50?
**Result** 1.64 µM

**Query** Entry under review: `Cc1c(-c2ccnc(N)n2)c2c(n1Cc1ccccc1)C(=O)c1ccccc1C2=O` . Reported GI50?
**Result** 3.12 µM

**Query** Entry under review: `COC(=O)COc1ccc(/C=C2/N=C(c3ccccc3)N(c3c(C)n(C)n(-c4ccccc4)c3=O)C2=O)cc1` . Reported GI50?
**Result** 33.5 µM

**Query** Entry under review: `Cc1nc(Nc2cccnc2)sc1C(=O)/C=C/c1ccc(Cl)cc1` . Reported GI50?
**Result** 2.79 µM

**Query** Entry under review: O=c1/c(=C\c2ccc(F)cc2)sc2n1C(c1ccc(F)cc1)C1=C(N=2)c2ccc3ccccc3c2OCC1 (stereo not drawn) . Reported GI50?
**Result** > 100 µM

**Query** Entry under review: `O=c1cc(N/N=C/c2ccc(F)cc2)c2cc(Cl)ccc2[nH]1` . Reported GI50?
**Result** 21.9 µM

**Query** Entry under review: `COc1ccc(C(=O)NNc2nc(Cl)nc(N3CCN(C(c4ccccc4)c4ccccc4)CC3)n2)cc1` . Reported GI50?
**Result** 16 µM

**Query** Entry under review: O=P1(S)OC[C@H]2O[C@@H]3[C@H](F)[C@@H]2OP(O)(=S)OC[C@H]2O[C@H]([C@H](F)[C@@H]2O1)n1cnc2c(ncnc21)NC/C=C/CNc1ncnc2c1ncn23 (stereo partly drawn) . Reported GI50?
**Result** > 100 µM

Values compiled from PubChem BioAssay (NCI).
